In what follows, each item is paired with its AC50 for Melanocortin receptor 3 (Homo sapiens).
Measurement label: AC50

molecule=CCc1nn(CCCN2CCN(c3cccc(Cl)c3)CC2)c(=O)n1CCOc1ccccc1 experimental_target="Melanocortin receptor 3 (Homo sapiens)" result="> 30 µM"
molecule=CN[C@@H](C)[C@H](O)c1ccccc1 experimental_target="Melanocortin receptor 3 (Homo sapiens)" result="> 30 µM"
molecule="CC(=O)N(CC(O)CO)c1c(I)c(C(=O)NCC(O)CO)c(I)c(C(=O)NCC(O)CO)c1I (configuration not stated) [IOHEXOL]" experimental_target="Melanocortin receptor 3 (Homo sapiens)" result="> 30 µM"
molecule=CS(=O)(=O)c1ccc([C@@H](O)[C@@H](CO)NC(=O)C(Cl)Cl)cc1 experimental_target="Melanocortin receptor 3 (Homo sapiens)" result="> 30 µM"
molecule=NC(N)=Nc1nc(CSCCC(N)=NS(N)(=O)=O)cs1 experimental_target="Melanocortin receptor 3 (Homo sapiens)" result="> 30 µM"
molecule="CN1CCC2=C(C1)C(c1ccccc1)c1ccccc12 (configuration not stated)" experimental_target="Melanocortin receptor 3 (Homo sapiens)" result="> 10 µM"
molecule="CC(=O)OCC(=O)[C@@]12OC3(CCCC3)O[C@@H]1C[C@H]1[C@@H]3CCC4=CC(=O)C=C[C@]4(C)[C@@]3(F)[C@@H](O)C[C@@]12C [AMCINONIDE]" experimental_target="Melanocortin receptor 3 (Homo sapiens)" result="> 10 µM"
molecule=[H]/N=C(/N)c1ccc(NCc2nc3cc(C(=O)N(CCC(=O)O)c4ccccn4)ccc3n2C)cc1 experimental_target="Melanocortin receptor 3 (Homo sapiens)" result="> 30 µM"
molecule=Cc1c(Cl)cccc1Nc1ccccc1C(=O)O experimental_target="Melanocortin receptor 3 (Homo sapiens)" result="> 30 µM"
molecule=NC[C@H]1CC[C@H](C(=O)O)CC1 experimental_target="Melanocortin receptor 3 (Homo sapiens)" result="> 10 µM"
molecule="CN1C(=O)CC(C)(c2ccccc2)C1=O (configuration not stated) [METHSUXIMIDE]" experimental_target="Melanocortin receptor 3 (Homo sapiens)" result="> 10 µM"
molecule=Oc1ncnc2[nH]ncc12 experimental_target="Melanocortin receptor 3 (Homo sapiens)" result="> 30 µM"
molecule=O=C(O)CCn1c2c(c3ccccc31)C[C@H](NS(=O)(=O)c1ccc(F)cc1)CC2 experimental_target="Melanocortin receptor 3 (Homo sapiens)" result="> 30 µM"
molecule=CCCOc1ccc(C(=O)OCCN(CC)CC)cc1N experimental_target="Melanocortin receptor 3 (Homo sapiens)" result="> 30 µM"
molecule="CC(C)C(=O)OCC(=O)[C@@]12O[C@H](C3CCCCC3)O[C@@H]1C[C@H]1[C@@H]3CCC4=CC(=O)C=C[C@]4(C)[C@H]3[C@@H](O)C[C@@]12C [CICLESONIDE]" experimental_target="Melanocortin receptor 3 (Homo sapiens)" result="> 10 µM"
molecule=CN1CC(=O)N2[C@H](c3ccc4c(c3)OCO4)c3[nH]c4ccccc4c3C[C@@H]2C1=O experimental_target="Melanocortin receptor 3 (Homo sapiens)" result="> 30 µM"
molecule=NC[C@H]1O[C@H](O[C@H]2[C@H](O)[C@@H](O[C@H]3O[C@H](CO)[C@@H](O)[C@H](N)[C@H]3O)[C@H](N)C[C@@H]2N)[C@H](O)[C@@H](O)[C@@H]1O experimental_target="Melanocortin receptor 3 (Homo sapiens)" result="> 10 µM"
molecule=O=C(NC[C@H]1CN(c2ccc(N3CCOCC3=O)cc2)C(=O)O1)c1ccc(Cl)s1 experimental_target="Melanocortin receptor 3 (Homo sapiens)" result="> 30 µM"
molecule="CN1C(=O)CC(c2ccccc2)C1=O (configuration not stated) [PHENSUXIMIDE]" experimental_target="Melanocortin receptor 3 (Homo sapiens)" result="> 10 µM"
molecule="NS(=O)(=O)c1cc2c(cc1Cl)NCNS2(=O)=O [HYDROCHLOROTHIAZIDE]" experimental_target="Melanocortin receptor 3 (Homo sapiens)" result="> 30 µM"
molecule=OCCN1CCN(CCCN2c3ccccc3C=Cc3ccccc32)CC1 experimental_target="Melanocortin receptor 3 (Homo sapiens)" result="> 30 µM"
molecule=Cc1nc2ccc(CN(C)c3ccc(C(=O)N[C@@H](CCC(=O)O)C(=O)O)s3)cc2c(=O)[nH]1 experimental_target="Melanocortin receptor 3 (Homo sapiens)" result="> 30 µM"
molecule=COc1ccc(C(=O)N2CCN(c3ccc4c(c3)CCC(=O)N4)CC2)cc1OC experimental_target="Melanocortin receptor 3 (Homo sapiens)" result="> 30 µM"
molecule=O=C1CN=C(c2ccccc2)c2cc(Cl)ccc2N1CC(F)(F)F experimental_target="Melanocortin receptor 3 (Homo sapiens)" result="> 30 µM"
molecule=CN1CC[C@]23CCCC[C@H]2[C@H]1Cc1ccc(O)cc13 experimental_target="Melanocortin receptor 3 (Homo sapiens)" result="> 10 µM"
molecule=C[C@H]1C[C@@H]2[C@H]([C@@H](O)C[C@@]3(C)[C@H]2CC[C@]3(O)C(=O)CO)[C@@]2(C)C=CC(=O)C=C12 experimental_target="Melanocortin receptor 3 (Homo sapiens)" result="> 10 µM"
molecule=CC(C)c1c(C(=O)Nc2ccccc2)c(-c2ccccc2)c(-c2ccc(F)cc2)n1CC[C@@H](O)C[C@@H](O)CC(=O)O experimental_target="Melanocortin receptor 3 (Homo sapiens)" result="> 30 µM"
molecule="COC(=O)C1=C(C)NC(C)=C(C(=O)OCC(C)C)C1c1ccccc1[N+](=O)[O-] (configuration not stated)" experimental_target="Melanocortin receptor 3 (Homo sapiens)" result="> 10 µM"
molecule=CC[C@H](C)C(=O)O[C@H]1C[C@H](O)C=C2C=C[C@H](C)[C@H](CC[C@@H](O)C[C@@H](O)CC(=O)O)[C@H]21 experimental_target="Melanocortin receptor 3 (Homo sapiens)" result="> 30 µM"
molecule="COC(=O)C1=C(C)NC(C)=C(C(=O)OC(C)C)C1c1cccc2nonc12 (configuration not stated)" experimental_target="Melanocortin receptor 3 (Homo sapiens)" result="> 30 µM"
molecule="CC(C)[N+](C)(CCC(C(N)=O)(c1ccccc1)c1ccccc1)C(C)C [ISOPROPAMIDE]" experimental_target="Melanocortin receptor 3 (Homo sapiens)" result="> 10 µM"
molecule=COC(=O)N[C@H](C(=O)N[C@@H](Cc1ccccc1)[C@@H](O)CN(Cc1ccc(-c2ccccn2)cc1)NC(=O)[C@@H](NC(=O)OC)C(C)(C)C)C(C)(C)C experimental_target="Melanocortin receptor 3 (Homo sapiens)" result="> 30 µM"
